src = patent US20220289830A1

target: native PcrV on live Pseudomonas aeruginosa (strains O6-57/66, O11-PA103, O1-52/66, O16-177/81) (Pseudomonas aeruginosa); experiment: cell-based or functional assay
reported endpoint: A549 cell lysis IC50, strain O6-57/66 (µg/mL)
Numeric answer only, unit µg/mL assumed.

Check out these entries, answers already filled in.
13-42 mAb (antibody, V domains shown) VH: EVQLLESGGGLVQPGGSLRLSCTASGFTFSDYPMSWVRQAPGKGLDWVSGISESGGSTNDADSVKGRFSTSRDNSKSTLYLDMNSLRAEDTAIYYCAKGRFCTNSSCFFRAVYGMDVWGQGTAVTVSS VL: DIQLTQSPSSLSASVGDRVTITCRASQGISSYLAWYQQKPGKAPKLLIYAASTLQSGVPSRFSGSGSGTDFTLTISSLQPEDFATYYCQQLSSYPLSFGGGTKVEIK : 0.891
7B1 (antibody, V domains shown, also called 7B1-IgG1; 7B1 mAb) VH: EVQLLESGGGLVQPGGSLRLSCTASGFTFSDNYMSWVRQAPGKGLDWVSVISESGGSTNYADSVKGRFSTSRDNSKSTLYLDMNSLRAEDTAIYYCAKGRFSTLSSHFFRAVYGMDVWGQGTAVTVSS VL: DIQLTQSPSSLSASVGDRVTITCRASQGISSYLAWYQQKPGKAPKLLIYAASTLQSGVPSRFSGSGSGTDFTLTISSLQPEDFATYYCQQLSSYPLTFGGGTKVEIK : 0.503
7C1 (antibody, V domains shown, also called optimized anti-PcrV mAb clone 7C1) VH: EVQLLESGGGLVQPGGSLRLSCTASGFTFSDNHMSWVRQAPGKGLDWVSGISESGGSTNYADSVKGRFSTSRDNSKSTLYLDMNSLRAEDTAIYYCAKGRFSTSSSHFYRAVYGMDVWGQGTAVTVSS VL: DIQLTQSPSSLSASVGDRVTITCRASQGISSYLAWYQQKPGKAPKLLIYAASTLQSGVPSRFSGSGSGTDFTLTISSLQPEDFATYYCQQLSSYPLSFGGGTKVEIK : 0.496

Could you now consider this next binder?
Look at this binder and give its reported A549 cell lysis IC50, strain O6-57/66. 8C1 (antibody, V domains shown, also called optimized anti-PcrV mAb clone 8C1) VH: EVQLLESGGGLVQPGGSLRLSCTASGFTFSDNHMSWVRQAPGKGLDWVSGISESGGSTNYADSVKGRFSTSRDNSKSTLYLDMNSLRAEDTAIYYCAKGRFSTNSAHFFRAVYGMDVWGQGTAVTVSS VL: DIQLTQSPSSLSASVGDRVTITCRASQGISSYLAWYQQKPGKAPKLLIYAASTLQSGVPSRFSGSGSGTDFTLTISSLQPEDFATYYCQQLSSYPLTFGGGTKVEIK
0.721
